Documented Kd across a set of binders
# measured_target: T1, MuMER (E23-S496) (mouse, UniProt Q60805 23-496)
# T1 construct: range 23-496; also called mouse MerTK extracellular domain
# T1 sequence (looked up): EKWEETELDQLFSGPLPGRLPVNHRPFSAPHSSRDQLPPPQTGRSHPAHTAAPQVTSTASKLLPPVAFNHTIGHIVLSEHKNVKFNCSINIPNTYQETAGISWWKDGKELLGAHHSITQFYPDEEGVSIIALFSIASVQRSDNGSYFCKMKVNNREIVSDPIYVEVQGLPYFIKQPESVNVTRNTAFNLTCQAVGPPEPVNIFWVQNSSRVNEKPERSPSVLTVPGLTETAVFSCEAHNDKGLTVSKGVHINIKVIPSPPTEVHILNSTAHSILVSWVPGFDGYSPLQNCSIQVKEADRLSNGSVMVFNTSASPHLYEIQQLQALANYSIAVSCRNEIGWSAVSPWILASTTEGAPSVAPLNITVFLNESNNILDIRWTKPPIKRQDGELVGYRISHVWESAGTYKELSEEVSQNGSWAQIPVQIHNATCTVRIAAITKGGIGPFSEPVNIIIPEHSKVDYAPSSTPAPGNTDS
# experiment_notes: SPR BIAcore T200, Ab captured, 25C
Quick note: give the figure in nM, leave out the unit.

# example entries with known answers
Rbt11G11 (antibody, V domains shown, Recombinant rabbit monoclonal antibody, Expi293, protein A purified) VH: QELVESGGGLVQAGESLKLSCKASGIDFSSYGISWVRQAPGKGLEWIAYIYPGFGITNYAHSVKGRFTISSDNAQNTVFLQMPSLTASDTATYFCARDLDYTGGVVGYAYVTYYFTLWGPGTLVTVSS VL: DPVLTQTPSSVEAAVGGTVTIKCQASESISSRLAWYQQKPGQPPKLLIYSASTLASGVSSRFKGSGSGTEFTLTISDLECADAATYYCQTYYGGSTTGWYVFGGGTEVVVK: 4.1
Rbt14C9 (antibody, V domains shown, Recombinant rabbit monoclonal antibody, Expi293, protein A purified) VH: QSVEESGGRLVTPGTPLTLTCTVSGIDLSANTMNWVRQAPGKGLEWIGIFTATGSTYYATWVNGRFTISKTSTTVDLKITSPTTEDTATYFCARSGSGSSSGAFNIWGPGTLVTVSL VL: DPVLTQTPASVSEPVGGTVTIKCQASQSISSSLAWYQQKPGQPPKLLIYAASILASEISSRFKGSRSGTEFTLTISDLECADAATYYCQCTSYGSLFLGPFGGGTEVVVK: 0.6

Moving on to the next binder.
In: What does the data say about its Kd? Entry: Rbt18G7 (antibody, V domains shown, Recombinant rabbit monoclonal antibody, Expi293, protein A purified) VH: QSLEESGGRLVTPGTPLTLTCTVSGIDLSSYALGWVRQAPGKGLEYIGIISSTGTTYYATWAKGRFTISKTSSTTVDLKITGPTTEDTATYFCARGAYAGYVAFGPYYFHIWGPGTLVTISL VL: DIVMTQTPASVEAAVGGTVTIKCQASQSISNFLAWYQQKPGQPPKVLIYAASHLASGVPSRFKGSGSGTQFTLTISDLECADAATYYCQSYFYSSTSIYNAFGGGTEVVVR
Out: 1.7
